# Target System: HLA-DRB1*01:01 (Homo sapiens, UniProt P01903+P01911, A100R/D57E/F55L/F60I/F76Y/I96L/L162R/M171V/P40L/Q125E/R42F/V115G/Y59C)
# Construct: EBV transformed homozygous cell lines were used as sources of MHC molecules; endogenous in cells; host or cells: EBV transformed homozygous cell lines
# Protocol: HLA class II peptide binding, inhibition of radiolabeled peptide binding to purified MHC
# Assay Conditions: citrullinated 15-mer (X); purified MHC, inhibition of radiolabeled peptide binding; dash = IC50 >40,000 nM; read-out: DRB1*01:01 binding capacity, Cit peptide (IC50 nM)
Square brackets hold non-standard residues; d marks the D form. Peptide text beside a SMILES is read from it. Cit = NC(=O)NCCC[C@H](N)C(=O)O
Consider the following compounds and their measured IC50 readings.
Measurement Label: IC50 (nM)

{"Compound": "CC(C)C[C@H](NC(=O)[C@H](CC(C)C)NC(=O)[C@H](CCCNC(N)=O)NC(=O)[C@@H](NC(=O)CNC(=O)[C@@H]1CCCN1C(=O)[C@@H](NC(=O)[C@H](CO)NC(=O)[C@H](CO)NC(=O)[C@@H](N)CCCNC(=N)N)C(C)C)C(C)C)C(=O)N[C@@H](CCC(N)=O)C(=O)N[C@@H](CC(=O)O)C(=O)N[C@@H](CO)C(=O)N[C@H](C(=O)N[C@@H](CC(=O)O)C(=O)O)C(C)C [RSSVPGVXLLQDSVD] (H-RSSVPGV[Cit]LLQDSVD-OH)", "Measurement Label": "IC50", "Output Unit": "nM", "Numeric Result": 1310}
{"Compound": "CC[C@H](C)[C@H](NC(=O)[C@H](CC(=O)O)NC(=O)[C@H](CCC(=O)O)NC(=O)[C@H](C)NC(=O)[C@H](CC(C)C)NC(=O)[C@H](CC(N)=O)NC(=O)[C@H](CC(=O)O)NC(=O)[C@H](CCCNC(=N)N)NC(=O)[C@H](CCC(=O)O)NC(=O)[C@@H](NC(=O)[C@H](CCC(=O)O)NC(=O)[C@@H](N)C(C)C)C(C)C)C(=O)N[C@@H](CCSC)C(=O)N[C@@H](CCCNC(N)=O)C(=O)N[C@@H](CC(C)C)C(=O)O [VEVERDNLAEDIMXL] (H-VEVERDNLAEDIM[Cit]L-OH)", "Measurement Label": "IC50", "Output Unit": "nM", "Numeric Result": 19600}
{"Compound": "CC(C)C[C@H](NC(=O)[C@H](CO)NC(=O)[C@H](C)NC(=O)[C@H](CC(N)=O)NC(=O)[C@@H](N)CC(=O)O)C(=O)N[C@@H](C)C(=O)N[C@@H](CCCNC(=N)N)C(=O)N[C@@H](CC(C)C)C(=O)N[C@@H](CC(=O)O)C(=O)N[C@@H](CC(C)C)C(=O)N[C@@H](CCC(=O)O)C(=O)N[C@@H](CCCNC(N)=O)C(=O)N[C@@H](CCCCN)C(=O)N[C@H](C(=O)N[C@@H](CCC(=O)O)C(=O)O)C(C)C [DNASLARLDLEXKVE] (H-DNASLARLDLE[Cit]KVE-OH)", "Measurement Label": "IC50", "Output Unit": "nM", "Numeric Result": 10900}
{"Compound": "CC(C)C[C@H](NC(=O)[C@@H](N)CO)C(=O)N[C@@H](Cc1ccc(O)cc1)C(=O)N[C@@H](C)C(=O)N[C@@H](CO)C(=O)N[C@@H](CO)C(=O)N1CCC[C@H]1C(=O)NCC(=O)NCC(=O)N[C@H](C(=O)N[C@@H](Cc1ccc(O)cc1)C(=O)N[C@@H](C)C(=O)N[C@H](C(=O)N[C@@H](CCCNC(N)=O)C(=O)N[C@@H](CO)C(=O)O)[C@@H](C)O)C(C)C [SLYASSPGGVYATXS]", "Measurement Label": "IC50", "Output Unit": "nM", "Numeric Result": 16}
{"Compound": "CC(C)C[C@H](NC(=O)[C@H](CCC(N)=O)NC(=O)[C@H](CC(=O)O)NC(=O)[C@@H](N)C(C)C)C(=O)N[C@H](C(=O)N[C@@H](CC(N)=O)C(=O)N[C@@H](CC(=O)O)C(=O)N[C@@H](CCCCN)C(=O)N[C@@H](C)C(=O)N[C@@H](CCCNC(=N)N)C(=O)N[C@H](C(=O)N[C@@H](CCC(=O)O)C(=O)N[C@H](C(=O)N[C@@H](CCC(=O)O)C(=O)N[C@@H](CCCNC(N)=O)C(=O)O)C(C)C)C(C)C)[C@@H](C)O [VDQLTNDKARVEVEX] (H-VDQLTNDKARVEVE[Cit]-OH)", "Measurement Label": "IC50", "Output Unit": "nM", "Numeric Result": 7420}

====

# Target System: HLA-DRB1*04:01 (Homo sapiens, UniProt P01903+P01911, A100K/A169T/F76Y/I96L/K127E/L162R/M171V/N62H/P40V/Q125Y/R42H/S133A/S149N/S66Y/V115G/V209L/W38E)
# Construct: EBV transformed homozygous cell lines were used as sources of MHC molecules; endogenous in cells; host or cells: EBV transformed homozygous cell lines
# Protocol: HLA class II peptide binding, inhibition of radiolabeled peptide binding to purified MHC
# Assay Conditions: wild-type (unmodified Arg) 15-mer peptide; purified HLA-DRB1*04:01; read-out: DRB1*04:01 binding capacity, WT peptide (IC50 nM)
Ends that are not written are not given here.
Consider the following sequences and their measured IC50 readings.

{"Polymer Sequence": "PTGKQGDRGEAGAQG [Collagen 1081 WT]", "Limit Operator": ">", "IC50, nM": 40000}
{"Polymer Sequence": "PNFSSLNLRETNLDS [Vimentin 416 WT]", "Limit Operator": "=", "IC50, nM": 6480}
{"Polymer Sequence": "RQVQSLTCEVDALKG [Vimentin 321 WT]", "Limit Operator": "=", "IC50, nM": 9140}
{"Polymer Sequence": "PGLRGLPGKDGETGA [Collagen 626 WT]", "Limit Operator": ">", "IC50, nM": 40000}
{"Polymer Sequence": "TGFPGAAGRVGPPGS [Collagen 896 WT]", "Limit Operator": ">", "IC50, nM": 40000}
{"Polymer Sequence": "ARGAQGPPGATGFPG [Collagen 886 WT]", "Limit Operator": ">", "IC50, nM": 40000}
{"Polymer Sequence": "THSKRTLLIKTVETR [Vimentin 436 WT]", "Limit Operator": "=", "IC50, nM": 6220}

====

# Target System: HLA-DRB1*04:01 (Homo sapiens, UniProt P01903+P01911, A100K/A169T/F76Y/I96L/K127E/L162R/M171V/N62H/P40V/Q125Y/R42H/S133A/S149N/S66Y/V115G/V209L/W38E)
# Construct: EBV transformed homozygous cell lines were used as sources of MHC molecules; endogenous in cells; host or cells: EBV transformed homozygous cell lines
# Protocol: HLA class II peptide binding, inhibition of radiolabeled peptide binding to purified MHC
# Assay Conditions: read-out: DRB1*04:01 binding capacity, WT peptide (IC50 nM)
Ends that are not written are not given here.
Measurement Label: log10 IC50 (log10 of the value in nM)

{"Polymer Sequence": "NDKARVEVERDNLAE [Vimentin 166 WT]", "log10 IC50": 2.95}
{"Polymer Sequence": "FRQDVDNASLARLDL [Vimentin 206 WT]", "log10 IC50": 2.16}
{"Polymer Sequence": "NTLQSFRQDVDNASL [Vimentin 201 WT]", "log10 IC50": 2.61}
{"Polymer Sequence": "YKSKFADLSEAANRN [Vimentin 291 WT]", "log10 IC50": 2.98}
{"Polymer Sequence": "VEVERDNLAEDIMRL [Vimentin 171 WT]", "log10 IC50": 4.21}
{"Polymer Sequence": "DNASLARLDLERKVE [Vimentin 211 WT]", "log10 IC50": 4.27}
{"Polymer Sequence": "TNEKVELQELNDRFA [Vimentin 101 WT]", "log10 IC50": 4.25}

====

# Target System: HLA-DRB1*01:01 (Homo sapiens, UniProt P01903+P01911, A100R/D57E/F55L/F60I/F76Y/I96L/L162R/M171V/P40L/Q125E/R42F/V115G/Y59C)
# Construct: EBV transformed homozygous cell lines were used as sources of MHC molecules; endogenous in cells; host or cells: EBV transformed homozygous cell lines
# Protocol: HLA class II peptide binding, inhibition of radiolabeled peptide binding to purified MHC
# Assay Conditions: citrullinated 15-mer peptide (X = citrulline); purified HLA-DRB1*01:01; read-out: DRB1*01:01 binding capacity, Cit peptide (IC50 nM)
Square brackets hold non-standard residues; d marks the D form. Peptide text beside a SMILES is read from it. Cit = NC(=O)NCCC[C@H](N)C(=O)O

{"Molecule": "CC(C)C[C@H](NC(=O)CNC(=O)[C@H](CCCNC(=N)N)NC(=O)[C@H](C)NC(=O)CNC(=O)[C@@H]1CCCN1C(=O)[C@@H](N)CC(C)C)C(=O)N[C@H](C(=O)NCC(=O)N[C@@H](CCCNC(N)=O)C(=O)N1CCC[C@H]1C(=O)NCC(=O)N[C@@H](CC(=O)O)C(=O)N[C@@H](C)C(=O)NCC(=O)O)[C@@H](C)O [LPGARGLTGXPGDAG] (H-LPGARGLTG[Cit]PGDAG-OH)", "IC50": "18 nM"}
{"Molecule": "CC[C@H](C)[C@H](NC(=O)[C@H](CCC(=O)O)NC(=O)[C@@H](NC(=O)[C@H](CC(=O)O)NC(=O)[C@H](CC(C)C)NC(=O)[C@H](C)NC(=O)[C@@H](N)CCSC)[C@@H](C)CC)C(=O)N[C@@H](C)C(=O)N[C@H](C(=O)N[C@@H](Cc1ccc(O)cc1)C(=O)N[C@@H](CCCNC(N)=O)C(=O)N[C@@H](CCCCN)C(=O)N[C@@H](CC(C)C)C(=O)N[C@@H](CC(C)C)C(=O)N[C@@H](CCC(=O)O)C(=O)O)[C@@H](C)O [MALDIEIATYXKLLE] (H-MALDIEIATY[Cit]KLLE-OH)", "IC50": "64 nM"}
{"Molecule": "CSCC[C@H](NC(=O)[C@H](CCC(=O)O)NC(=O)[C@H](CCCNC(=N)N)NC(=O)[C@H](CCSC)NC(=O)[C@H](CCC(N)=O)NC(=O)[C@H](CCCNC(N)=O)NC(=O)[C@H](CCC(=O)O)NC(=O)[C@H](CC(C)C)NC(=O)[C@H](CO)NC(=O)[C@H](CCC(=O)O)NC(=O)[C@H](CC(N)=O)NC(=O)[C@@H](N)[C@@H](C)O)C(=O)N[C@@H](CCC(=O)O)C(=O)N[C@@H](CCC(=O)O)C(=O)N[C@@H](CC(N)=O)C(=O)O [TNESLEXQMREMEEN] (H-TNESLE[Cit]QMREMEEN-OH; N-terminus and C-terminus assumed)", "IC50": "> 40000 nM"}
